- system.under.test: Cytochrome P450 2C9 (Homo sapiens, UniProt P11712)
- Sequence (P11712 whole entry): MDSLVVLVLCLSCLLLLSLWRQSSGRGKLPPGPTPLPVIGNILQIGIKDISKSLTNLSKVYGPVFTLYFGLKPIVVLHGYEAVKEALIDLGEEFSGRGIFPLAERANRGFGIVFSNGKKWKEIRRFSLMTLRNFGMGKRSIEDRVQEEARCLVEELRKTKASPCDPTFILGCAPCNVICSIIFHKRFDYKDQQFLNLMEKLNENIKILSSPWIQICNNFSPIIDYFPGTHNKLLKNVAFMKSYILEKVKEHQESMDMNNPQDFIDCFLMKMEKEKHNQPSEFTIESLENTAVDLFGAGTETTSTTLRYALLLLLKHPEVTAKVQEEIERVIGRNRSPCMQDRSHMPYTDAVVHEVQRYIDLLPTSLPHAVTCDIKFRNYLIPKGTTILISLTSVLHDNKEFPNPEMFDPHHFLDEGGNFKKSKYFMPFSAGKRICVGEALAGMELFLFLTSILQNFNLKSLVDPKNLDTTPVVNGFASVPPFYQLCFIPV
- assay.overview: Inhibition of human recombinant CYP2C9 using dibenzylfluorescein after 45 mins by fluorescence spectrophotometric analysis
- Assay type: ADME
pIC50: −log10 of the molar value.
quantity.kind: pIC50

chemical.string | endpoint.result
Cc1ccc(Sc2ccccc2N2CCNCC2)cc1.Cl | 4.40
Cc1ccc(Sc2ccccc2N2CCNCC2)cc1C.Cl | 4.47
Cl.Clc1ccc(Sc2ccccc2N2CCNCC2)c(Cl)c1 | 4.47
Cc1ccc(Sc2ccccc2N2CCNCC2)c(C)c1.Cl | 4.41
Clc1cccc(Sc2ccccc2N2CCNCC2)c1Cl | 4.40
Cc1ccc(Sc2ccccc2N2CCNCC2)c(Cl)c1.Cl | 4.40
Cl.Clc1ccc(Sc2ccccc2N2CCNCC2)cc1 | 4.51

====

- system.under.test: Sodium-dependent serotonin transporter (Rattus norvegicus, UniProt P31652)
- Sequence (P31652 whole entry): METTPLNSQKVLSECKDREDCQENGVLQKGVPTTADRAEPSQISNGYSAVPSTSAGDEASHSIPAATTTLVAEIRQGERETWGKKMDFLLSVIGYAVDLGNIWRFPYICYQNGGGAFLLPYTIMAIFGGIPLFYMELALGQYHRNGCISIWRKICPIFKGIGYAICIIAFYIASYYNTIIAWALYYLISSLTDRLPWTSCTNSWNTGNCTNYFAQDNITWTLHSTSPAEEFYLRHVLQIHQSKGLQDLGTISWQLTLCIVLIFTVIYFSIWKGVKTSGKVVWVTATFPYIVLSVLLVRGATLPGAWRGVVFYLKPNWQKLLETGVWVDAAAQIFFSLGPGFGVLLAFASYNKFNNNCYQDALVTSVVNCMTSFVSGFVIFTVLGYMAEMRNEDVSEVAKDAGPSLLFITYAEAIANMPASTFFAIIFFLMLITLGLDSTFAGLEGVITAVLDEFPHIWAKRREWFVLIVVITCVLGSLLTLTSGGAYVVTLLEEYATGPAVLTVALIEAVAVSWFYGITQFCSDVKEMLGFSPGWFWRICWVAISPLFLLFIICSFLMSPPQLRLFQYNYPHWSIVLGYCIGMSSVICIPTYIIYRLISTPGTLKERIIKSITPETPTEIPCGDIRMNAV
- assay.overview: Inhibition of SERT-mediated [3H]5HT uptake in rat synaptosomes by scintillation counting
pIC50: −log10 of the molar value.
# if value of pIC50 reaches 7, tag met; if it stays below, tag not met

chemical.string | class
Cl.Clc1ccc(Sc2ccccc2N2CCNCC2)c(Cl)c1 | met
COc1ccc(Sc2ccccc2N2CCNCC2)cc1 | met
Cc1ccccc1Sc1ccccc1N1CCNCC1 | met
COc1cccc(Sc2ccccc2N2CCNCC2)c1OC | met
Cc1ccc(Sc2cc(C)ccc2N2CCNCC2)c(C)c1 | not met
c1ccc(Sc2ccccc2N2CCNCC2)cc1 | not met
Clc1ccc(Sc2ccccc2N2CCNCC2)cc1Cl | met
COc1cccc(Sc2ccccc2N2CCNCC2)c1 | met
Cc1ccc(Oc2ccccc2N2CCNCC2)c(C)c1 | not met
Cc1ccc(Sc2cccc(C)c2N2CCNCC2)c(C)c1 | met

====

- system.under.test: 5-hydroxytryptamine receptor 1A (Homo sapiens)
- Sequence (P08908 whole entry): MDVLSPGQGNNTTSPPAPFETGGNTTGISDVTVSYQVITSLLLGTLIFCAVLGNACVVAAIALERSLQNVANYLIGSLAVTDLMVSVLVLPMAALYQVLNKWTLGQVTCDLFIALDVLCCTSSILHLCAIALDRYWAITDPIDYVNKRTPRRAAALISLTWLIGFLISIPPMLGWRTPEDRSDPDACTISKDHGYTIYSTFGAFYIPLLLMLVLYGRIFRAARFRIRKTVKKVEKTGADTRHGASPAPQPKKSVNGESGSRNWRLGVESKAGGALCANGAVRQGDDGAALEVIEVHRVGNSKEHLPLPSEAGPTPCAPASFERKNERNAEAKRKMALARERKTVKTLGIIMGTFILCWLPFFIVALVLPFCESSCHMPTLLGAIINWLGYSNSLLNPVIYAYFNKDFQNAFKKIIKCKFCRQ
pKi: −log10 of the molar value.
quantity.kind: pKi

chemical.string | system.under.test | endpoint.result
CC(C)(C)c1ccc(Sc2ccccc2N2CCNCC2)cc1 | 5-hydroxytryptamine receptor 1A (Homo sapiens) | 5.60
COc1ccc(Sc2ccc(C)cc2N2CCNCC2)cc1 | 5-hydroxytryptamine receptor 1A (Homo sapiens) | 5.40
c1ccc(Sc2ccccc2N2CCNCC2)cc1 | 5-hydroxytryptamine receptor 1A (Homo sapiens) | 7.52
Cc1ccc(Oc2ccccc2N2CCNCC2)c(C)c1 | 5-hydroxytryptamine receptor 1A (Homo sapiens) | 7.19
Cc1ccc(Sc2ccccc2)c(N2CCNCC2)c1 | 5-hydroxytryptamine receptor 1A (Homo sapiens) | 5.96
FC(F)(F)c1ccc(Sc2ccccc2N2CCNCC2)cc1 | 5-hydroxytryptamine receptor 1A (Homo sapiens) | 6.62
COc1ccc(Sc2ccccc2N2CCNCC2)c(OC)c1 | 5-hydroxytryptamine receptor 1A (Homo sapiens) | 6.48

====

- system.under.test: 5-hydroxytryptamine receptor 7 (Homo sapiens)
- Sequence (P34969 whole entry): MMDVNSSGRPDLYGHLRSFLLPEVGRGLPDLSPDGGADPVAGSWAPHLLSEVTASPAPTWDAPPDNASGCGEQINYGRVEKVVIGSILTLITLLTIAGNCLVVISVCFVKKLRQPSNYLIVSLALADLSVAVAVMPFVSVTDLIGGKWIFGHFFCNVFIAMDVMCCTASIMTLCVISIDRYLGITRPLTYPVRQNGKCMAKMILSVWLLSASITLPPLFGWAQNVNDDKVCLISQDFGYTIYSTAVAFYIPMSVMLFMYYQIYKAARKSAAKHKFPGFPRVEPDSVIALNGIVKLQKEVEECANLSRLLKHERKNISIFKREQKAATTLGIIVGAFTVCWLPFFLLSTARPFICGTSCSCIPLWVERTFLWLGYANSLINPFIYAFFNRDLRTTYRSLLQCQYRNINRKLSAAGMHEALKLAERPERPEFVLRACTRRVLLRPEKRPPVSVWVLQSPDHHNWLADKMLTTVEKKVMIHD
- assay.overview: Binding affinity to human 5HT7 receptor
pKi: −log10 of the molar value.

chemical.string | pKi
Cc1ccc(Sc2ccccc2N2CCNCC2)c(C)c1.Cl | 7.72

====

- system.under.test: UniProtKB P25021
- Sequence (P25021 whole entry): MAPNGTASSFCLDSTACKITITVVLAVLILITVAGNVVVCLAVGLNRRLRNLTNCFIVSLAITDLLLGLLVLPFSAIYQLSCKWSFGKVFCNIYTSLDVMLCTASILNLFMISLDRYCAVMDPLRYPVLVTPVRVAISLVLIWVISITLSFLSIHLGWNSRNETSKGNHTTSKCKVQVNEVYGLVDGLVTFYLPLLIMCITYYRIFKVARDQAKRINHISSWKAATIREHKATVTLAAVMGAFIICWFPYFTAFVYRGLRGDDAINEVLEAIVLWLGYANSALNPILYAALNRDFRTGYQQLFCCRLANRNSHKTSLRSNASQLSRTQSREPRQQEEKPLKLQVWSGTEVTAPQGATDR
quantity.kind: Ki (nM)

chemical.string | system.under.test | endpoint.result
Cc1ccc(Sc2ccccc2N2CCNCC2)c(C)c1.Cl | UniProtKB P25021 | 180

====

- system.under.test: Histamine H1 receptor (Homo sapiens)
- Sequence (P35367 whole entry): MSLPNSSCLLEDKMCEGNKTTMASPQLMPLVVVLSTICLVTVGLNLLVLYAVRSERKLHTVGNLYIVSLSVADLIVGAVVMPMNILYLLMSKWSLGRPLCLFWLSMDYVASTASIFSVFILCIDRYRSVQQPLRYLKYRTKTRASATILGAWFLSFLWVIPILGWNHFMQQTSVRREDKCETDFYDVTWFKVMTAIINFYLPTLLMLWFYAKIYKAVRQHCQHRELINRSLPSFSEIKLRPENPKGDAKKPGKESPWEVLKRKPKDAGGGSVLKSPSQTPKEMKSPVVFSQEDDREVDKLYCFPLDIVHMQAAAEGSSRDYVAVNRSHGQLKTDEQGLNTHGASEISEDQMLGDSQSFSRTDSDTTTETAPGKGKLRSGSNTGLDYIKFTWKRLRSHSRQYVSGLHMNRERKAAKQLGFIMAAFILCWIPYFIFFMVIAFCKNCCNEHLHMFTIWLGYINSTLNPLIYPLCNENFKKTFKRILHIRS
- assay.overview: Binding affinity to human histamine H1 receptor
quantity.kind: Ki (nM)

chemical.string | endpoint.result
Cc1ccc(Sc2ccccc2N2CCNCC2)c(C)c1.Cl | 180

====

- Organism: Rattus norvegicus
- assay.overview: Selectivity ratio of IC50 for NET to IC50 for SERT in rat synaptosomes
- condition.parameters: Brain

chemical.string | Ratio IC50
Cl.Clc1ccc(Sc2ccccc2N2CCNCC2)c(Cl)c1 | 23
Cc1cccc(Sc2ccccc2N2CCNCC2)c1C | 20
Cc1ccc(Sc2ccccc2N2CCNCC2)c(Cl)c1.Cl | 35
Cc1ccc(Sc2ccccc2N2CCNCC2)cc1C.Cl | 150
Cl.Clc1ccc(Sc2ccccc2N2CCNCC2)cc1 | 12
Cc1ccc(Sc2ccccc2N2CCNCC2)cc1.Cl | 25
Clc1cccc(Sc2ccccc2N2CCNCC2)c1Cl | 7

====

- system.under.test: 5-hydroxytryptamine receptor 1A (Rattus norvegicus) (UniProt P19327)
- Sequence (P19327 whole entry, looked up): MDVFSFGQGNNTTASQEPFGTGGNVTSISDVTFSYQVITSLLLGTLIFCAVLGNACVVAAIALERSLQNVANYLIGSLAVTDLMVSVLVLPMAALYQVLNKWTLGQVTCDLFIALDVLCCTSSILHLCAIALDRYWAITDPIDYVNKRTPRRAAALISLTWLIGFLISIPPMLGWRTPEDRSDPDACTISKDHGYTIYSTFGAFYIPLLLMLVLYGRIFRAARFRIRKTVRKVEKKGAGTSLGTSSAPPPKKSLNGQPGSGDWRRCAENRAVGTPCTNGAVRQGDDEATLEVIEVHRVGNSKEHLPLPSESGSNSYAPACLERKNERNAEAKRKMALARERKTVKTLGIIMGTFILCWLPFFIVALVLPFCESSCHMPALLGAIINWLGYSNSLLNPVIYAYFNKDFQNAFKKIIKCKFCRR

chemical.string | Ki [nM]
Cc1ccc(Sc2ccccc2N2CCNCC2)c(C)c1.Cl | 230

====

pKi: −log10 of the molar value.
Reported pKi values, 5-hydroxytryptamine receptor 1A (Homo sapiens, UniProt P08908).

chemical.string | pKi
Cl.Clc1ccc(Sc2ccccc2N2CCNCC2)c(Cl)c1 | 7.11
Cc1ccc(Sc2ccccc2N2CCNCC2)c(Cl)c1.Cl | 7.11
COc1ccc(Sc2ccccc2N2CCNCC2)cc1 | 6.89
COc1ccc(Sc2ccccc2N2CCNCC2)cc1OC | 6.80
Cc1ccc(Sc2cccc(C)c2N2CCNCC2)c(C)c1 | 6.38
Cl.Clc1ccc(Sc2ccccc2N2CCNCC2)cc1 | 7.16
Cc1ccc(Sc2ccc(C)cc2N2CCNCC2)cc1 | 5.55
Cc1ccccc1Sc1ccccc1N1CCNCC1 | 7.85
Cc1ccc(Sc2ccccc2N2CCN(C)CC2)c(C)c1 | 6.92

====

Below is a list of entries, each paired with its recorded Ki value.
- system.under.test: 5-hydroxytryptamine receptor 3A (Homo sapiens)
- Sequence (P46098 whole entry): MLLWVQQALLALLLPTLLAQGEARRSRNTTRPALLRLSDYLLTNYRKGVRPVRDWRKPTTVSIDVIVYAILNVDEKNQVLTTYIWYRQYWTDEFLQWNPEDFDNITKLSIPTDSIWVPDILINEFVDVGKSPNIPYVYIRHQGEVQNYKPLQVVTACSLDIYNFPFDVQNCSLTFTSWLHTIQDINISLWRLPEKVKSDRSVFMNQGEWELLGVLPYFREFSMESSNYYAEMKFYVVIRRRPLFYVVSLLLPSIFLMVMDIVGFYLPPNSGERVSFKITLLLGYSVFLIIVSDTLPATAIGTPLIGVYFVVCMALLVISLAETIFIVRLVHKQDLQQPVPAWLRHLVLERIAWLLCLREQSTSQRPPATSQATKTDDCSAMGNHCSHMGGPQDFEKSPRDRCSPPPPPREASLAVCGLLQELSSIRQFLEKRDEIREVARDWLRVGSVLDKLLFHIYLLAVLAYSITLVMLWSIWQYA
- assay.overview: Displacement of [3H]granisetron from human 5HT3A receptor expressed in HEK293 cells by filter binding assay
- Format: cell-based

chemical.string | system.under.test | Ki
Cc1ccc(Sc2ccccc2N2CCN(C)CC2)c(C)c1 | 5-hydroxytryptamine receptor 3A (Homo sapiens) | 0.13 µM
c1ccc(Sc2ccccc2N2CCNCC2)cc1 | 5-hydroxytryptamine receptor 3A (Homo sapiens) | 0.064 µM
Clc1ccc(Sc2ccccc2N2CCNCC2)cc1Cl | 5-hydroxytryptamine receptor 3A (Homo sapiens) | 0.11 µM
Cc1cccc(Sc2ccccc2N2CCNCC2)c1 | 5-hydroxytryptamine receptor 3A (Homo sapiens) | 0.064 µM

====

- system.under.test: Sodium-dependent serotonin transporter (Rattus norvegicus, UniProt P31652)
- assay.overview: Inhibition of SERT-mediated [3H]5HT uptake in rat synaptosomes by scintillation counting

chemical.string | units.text | IC50
Cc1ccc(Sc2ccccc2N2CCCNCC2)c(C)c1 | nM | 130
Cc1ccc(Sc2ccc(F)cc2)c(N2CCNCC2)c1 | nM | 68
Fc1ccc(Sc2ccccc2N2CCNCC2)cc1 | nM | 67

Hello, the source for this data is ChEMBL document CHEMBL2203036, in case you need it.
